// reported IC50 per item
biological target: Proteasome subunit beta type-6 (Homo sapiens); assay: Inhibition of human 20S constitutive proteasome beta 1 subunit caspase-like activity using fluorogenic peptide Ac-nLPnLD-AMC as substrate in presence of PA28alpha incubated for 1 to 2 hrs by fluorescence microplate reader assay
Sequence (P28072 whole entry): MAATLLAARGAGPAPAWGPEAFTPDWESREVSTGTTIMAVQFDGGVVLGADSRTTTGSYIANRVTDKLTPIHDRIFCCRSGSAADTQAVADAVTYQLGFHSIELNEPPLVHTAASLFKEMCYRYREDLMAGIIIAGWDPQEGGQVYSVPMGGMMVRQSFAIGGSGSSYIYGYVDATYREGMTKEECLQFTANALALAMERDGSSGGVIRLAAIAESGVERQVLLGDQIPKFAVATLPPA
measured-endpoint: IC50 (nM)

INSERT INTO assay_data (record_smiles, unit, recorded_value) VALUES
  ('Cc1ccc(S(=O)(=O)N[C@@H](CC(=O)NCC(C)(C)C)C(=O)N[C@@H](Cc2ccccc2)C(=O)N[C@@H](CC(C)C)B(O)O)cc1', 'nM', 1600),
  ('CC(=O)N1CCC[C@H]1C(=O)N[C@@H](C)C(=O)N[C@@H](CC(C)C)B(O)O', 'nM', 320),
  ('CC(C)C[C@H](NC(=O)[C@H](Cc1ccccc1)NC(=O)Cc1ccc(O)cc1)B(O)O', 'nM', 52),
  ('CC(=O)N1CCC[C@@H]1C(=O)N[C@@H](C)C(=O)N[C@@H](Cc1ccccc1)B(O)O', 'nM', 3400);

----------
test system: Plasmodium falciparum; experiment: Antiplasmodial activity against sorbitol synchronized ring stage Plasmodium falciparum 3D7 assessed as reduction in parasitemia incubated for 72 hrs by Syto-61 staining dye based flow cytometry analysis; format: functional; conditions: read-out: LD50 (the source's name)
measured-endpoint: LC50 (nM)

INSERT INTO results (record_smiles, recorded_value) VALUES
  ('CC(=O)N1CCC[C@@H]1C(=O)N[C@@H](C)C(=O)N[C@@H](Cc1ccccc1)B(O)O', 120),
  ('CC(C)C[C@H](NC(=O)[C@H](Cc1ccccc1)NC(=O)c1cnccn1)B(O)O', 60),
  ('CC(C)C[C@H](NC(=O)[C@H](Cc1ccccc1)NC(=O)Cc1ccc(O)cc1)B(O)O', 61),
  ('Cc1ccc(S(=O)(=O)N[C@@H](CC(=O)NCC(C)(C)C)C(=O)N[C@@H](Cc2ccccc2)C(=O)N[C@@H](CC(C)C)B(O)O)cc1', 65);
